Test system: ZAK
conditions: concentration: 1 μM,replicates: in singlicate; n = 1;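 also: KINOMEscan kinase panel screen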
quantityMeasured: %Inh
Put your answer as a value accompanied by its unit after it.

Take a look at these entries with their results.
compound=Cn1ccc2ncnc(Oc3ccc(NC(=O)Nc4cnn(C(C)(C)C)c4)c(Cl)c3)c21 quantitymeasured=%Inh observedmeasurement=0%
compound="COc1cc2c(Nc3ccc(NC(=O)c4ccccc4)cc3)ncnc2cc1OCCCN1CCOCC1 [GSK301329]" quantitymeasured=%Inh observedmeasurement=8%
compound="CC(C)c1nc(-c2cccc(NS(=O)(=O)c3ccccc3)c2)c(-c2ccnc(Nc3ccc4c(c3)CN(C)CC4)n2)s1 [GSK1649598]" quantitymeasured=%Inh observedmeasurement=98.6%
compound="Cc1ccn2nc(-c3ccc(F)cc3)c(-c3ccncc3)c2c1.Cl [GW457859]" quantitymeasured=%Inh observedmeasurement=0%
compound="Nc1nccc(-c2ccc3c(N)n[nH]c3c2)n1 [GSK1034945]" quantitymeasured=%Inh observedmeasurement=1%

Task: Identify measured %Inh associated with CCOC(=O)N1CCC(n2cnc(-c3ccc(F)cc3)c2-c2ccnc(N)n2)CC1 [SB-219952]
Output: 9%

Task: Give reported %Inh value for CS(=O)c1ccc(-c2coc3ccc(-c4n[nH]c(=O)o4)cc23)cc1 (stereo not drawn)
Output: 0%

Task: Entry COc1cc(Nc2nccc(N3CCC(NC(=O)c4cccc(C#N)c4)C3)n2)cc(OC)c1OC (stereo not drawn) [GSK1379751] needs its %Inh filled in; supply it.
Output: 0%

Task: Specify reported %Inh for the compound shown: CC(=O)c1c(-c2ccncc2)[nH]c(-c2ccncc2)c1C [GW493036]
Output: 34%

----------
System: MYLK2
conditions: concentration: 1 μM,replicates: in singlicate; n = 1
quantityMeasured: %Inh (%)
Dear colleague, please return just the value in %, with no unit written.

compound="CC(C(=O)NC1CCN(c2ccnc(Nc3ccc(F)cc3)n2)C1)c1ccc(Cl)cc1 (centres unmarked) [GSK1379713]" quantitymeasured=%Inh observedmeasurement=3

Task: Identify the reported %Inh for the following entry. CC(C)S(=O)(=O)N1CCN(Cc2ccc3c(c2)nc(NC(=O)c2ccsc2)n3C[C@H](O)c2ccccc2)CC1 [GW635815]
Output: 15

Task: Given CCNCC(Cc1ccccc1)NC(=O)c1cc(Br)c(-c2ccnc3[nH]ccc23)s1.Cl.Cl (centres unmarked) [GSK1383280] , respond with its %Inh.
Output: 22

Task: State its %Inh: C[C@@H](Oc1cc(-n2cnc3cc(-c4ccncc4)ccc32)sc1C(N)=O)c1ccccc1Cl [GSK479719]
Output: 22

Task: Recall and state the measured %Inh for O=C(Nc1n[nH]c2cc(-c3ccco3)ccc12)C1CC1 [SB-737447] .
Output: 86

Task: Please report %Inh for the following compound: OCCn1cc(-c2cnc3nnn(Cc4ccc5ncccc5c4)c3n2)cn1
Output: 0

Task: Tell me %Inh reported for Cc1cccc(-c2nc(Nc3ccncc3)c3sccc3n2)n1 [GW869641]
Output: 4

Task: Find the measured %Inh of Nc1nccc(-c2ccc3c(N)n[nH]c3c2)n1 [GSK1034945] and report it.
Output: 85

Task: Complete the entry with %Inh for C[C@@H]1CNc2c(sc3ccc4nc(-c5ccc(O)cc5)ccc4c23)C(=O)N1
Output: 14

Task: Write down %Inh measured for item O=C(NCC1CC1)c1ccc(-c2cc(C(=O)NC3CC3)ccc2F)cc1 [GW810445]
Output: 0
